# collection of Ki values tested on UniProt:P31652
# Sequence (P31652 whole entry): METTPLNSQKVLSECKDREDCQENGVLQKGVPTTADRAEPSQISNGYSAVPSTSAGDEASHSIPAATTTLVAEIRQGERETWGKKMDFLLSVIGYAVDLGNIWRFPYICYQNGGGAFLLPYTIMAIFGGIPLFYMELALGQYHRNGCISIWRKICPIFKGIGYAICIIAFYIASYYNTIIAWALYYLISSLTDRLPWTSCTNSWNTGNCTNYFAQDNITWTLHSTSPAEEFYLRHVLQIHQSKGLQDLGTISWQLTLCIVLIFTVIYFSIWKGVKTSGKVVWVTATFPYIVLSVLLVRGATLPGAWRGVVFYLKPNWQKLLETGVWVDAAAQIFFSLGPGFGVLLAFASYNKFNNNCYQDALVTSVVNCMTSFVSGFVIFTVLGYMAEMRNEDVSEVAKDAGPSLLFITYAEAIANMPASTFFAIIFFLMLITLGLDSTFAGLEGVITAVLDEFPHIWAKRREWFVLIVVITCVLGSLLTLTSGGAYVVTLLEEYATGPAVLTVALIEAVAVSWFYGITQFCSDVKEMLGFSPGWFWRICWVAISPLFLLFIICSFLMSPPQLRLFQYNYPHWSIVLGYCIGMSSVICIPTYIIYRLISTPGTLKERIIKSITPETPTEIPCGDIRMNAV
Write down the numeric answer in µM and omit the unit.

If you can, please state the reported Ki value of COC(=O)[C@@H]1C2CCC(C[C@@H]1c1ccc(Br)cc1)N2C (stereo not given in full) .
0.0041

And the next one, COC(=O)[C@@H]1C2CCC(C[C@@H]1c1ccc(-c3ccc(N=[N+]=[N-])c(I)c3)cc1)N2C (stereo not given in full) ?
0.109

And the next one, COC(=O)[C@@H]1C2CCC(C[C@@H]1c1ccc(-c3ccc(N)cc3)cc1)N2C (stereo not given in full) ?
1.07

And the next one, COC(=O)[C@@H]1C2CCC(C[C@@H]1c1ccc(-c3ccc(N)c(I)c3)cc1)N2C (stereo not given in full) ?
0.00882

And the next one, COC(=O)[C@@H]1C2CCC(C[C@@H]1c1ccc(-c3ccc([N+](=O)[O-])cc3)cc1)N2C (stereo not given in full) ?
0.051

* * *

Target: Sodium-dependent dopamine transporter (Rattus norvegicus)
Sequence (P23977 whole entry): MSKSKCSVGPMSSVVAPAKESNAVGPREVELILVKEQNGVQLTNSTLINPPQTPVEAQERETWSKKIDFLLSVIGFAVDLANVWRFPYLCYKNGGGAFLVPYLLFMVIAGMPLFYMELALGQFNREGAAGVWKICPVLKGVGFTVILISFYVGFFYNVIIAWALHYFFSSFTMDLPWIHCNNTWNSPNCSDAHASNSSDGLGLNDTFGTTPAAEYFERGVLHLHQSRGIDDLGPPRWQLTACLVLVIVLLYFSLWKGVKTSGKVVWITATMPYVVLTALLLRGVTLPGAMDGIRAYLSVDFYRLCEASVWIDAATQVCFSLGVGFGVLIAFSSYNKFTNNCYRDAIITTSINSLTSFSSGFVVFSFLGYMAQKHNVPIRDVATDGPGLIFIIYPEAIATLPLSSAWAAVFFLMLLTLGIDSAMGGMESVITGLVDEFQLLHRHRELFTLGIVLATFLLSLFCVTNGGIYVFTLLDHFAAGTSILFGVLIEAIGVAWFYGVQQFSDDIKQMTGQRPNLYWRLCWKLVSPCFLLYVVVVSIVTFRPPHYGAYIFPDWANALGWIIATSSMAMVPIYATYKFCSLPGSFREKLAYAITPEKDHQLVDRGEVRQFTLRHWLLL
pKi: −log10 of the molar value.
// label = 1 if pKi is not less than 8, otherwise 0

Please tell me: is the molecule COC(=O)[C@@H]1C2CCC(C[C@@H]1c1ccc(-c3ccc(N)c(I)c3)cc1)N2C (stereo not given in full) at or over 8 in terms of pKi?
0

And the next one, COC(=O)[C@@H]1C2CCC(C[C@@H]1c1ccc(Br)cc1)N2C (stereo not given in full) ?
1

And the next one, COC(=O)[C@@H]1C2CCC(C[C@@H]1c1ccc(-c3ccc([N+](=O)[O-])cc3)cc1)N2C (stereo not given in full) ?
1
